# assay-info: Pharmacokinetic study, single intravenous and oral administration in rats
# Type: in vivo
# run-conditions: rat, plasma, oral 50 mg/kg
measure: bioavailability (%)
One number for each entry, in %.

Request: bioavailability lookup needed for `C=CC(=O)Nc1cc(Nc2ncc(C(=O)OC(C)C)c(-c3cn(OC)c4ccccc34)n2)c(OC)cc1N(C)CCN(C)C.CS(=O)(=O)O` , thanks.
Result: 68.6

* * *

# assay-info: Pharmacokinetic study, single intravenous and oral administration in Beagle dogs
# Type: in vivo
# run-conditions: dog, plasma, oral 50 mg/kg, read-out: Exposure of AUC0-last
measure: AUC(0-t) (µM·h)
Numbers only, in µM·h.

Request: AUC(0-t) lookup needed for C=CC(=O)Nc1cc(Nc2ncc(C(=O)OC(C)C)c(-c3cn(OC)c4ccccc34)n2)c(OC)cc1N(C)CCN(C)C.CS(=O)(=O)O [Compound 1] , thanks.
Result: 35.3

* * *

# assay-info: Pharmacokinetic study, single intravenous and oral administration in rats
# Type: in vivo
# run-conditions: rat, plasma, intravenous injection 2 mg/kg
measure: clearance (mL/min/kg)
One number for each entry, in mL/min/kg.

Request: clearance lookup needed for `C=CC(=O)Nc1cc(Nc2ncc(C(=O)OC(C)C)c(-c3cn(OC)c4ccccc34)n2)c(OC)cc1N(C)CCN(C)C.CS(=O)(=O)O` , thanks.
Result: 90.5

* * *

# assay-info: Pharmacokinetic study, single intravenous and oral administration in rats
# Format: in vivo
# run-conditions: rat, plasma, oral 10 mg/kg, read-out: Exposure of AUC0-last
measure: AUC(0-t) (µM·h)
One number for each entry, in µM·h.

Request: AUC(0-t) lookup needed for C=CC(=O)Nc1cc(Nc2ncc(C(=O)OC(C)C)c(-c3cn(OC)c4ccccc34)n2)c(OC)cc1N(C)CCN(C)C.CS(=O)(=O)O [Compound 1] , thanks.
Result: 0.593

* * *

# assay-info: Compound stability test in plasma (human)
# Assay type: in vitro ADME
# run-conditions: pH 7.4, 37° C., read-out: In vitro plasma half-life T1/2
measure: half-life at 2 µM (min)
One number for each entry, in min.

Request: half-life at 2 µM lookup needed for `C=CC(=O)Nc1cc(Nc2ncc(C(=O)OC(C)C)c(-c3cn(OC)c4ccccc34)n2)c(OC)cc1N(C)CCN(C)C.CS(=O)(=O)O` , thanks.
Result: 51.6

* * *

# assay-info: Pharmacokinetic study, single intravenous and oral administration in Beagle dogs
# Format: in vivo
# run-conditions: dog, plasma, intravenous injection 2 mg/kg, read-out: Exposure of AUC
measure: AUC (µM·h)
Give bare numbers, in µM·h.

Request: AUC lookup needed for `C=CC(=O)Nc1cc(Nc2ncc(C(=O)OC(C)C)c(-c3cn(OC)c4ccccc34)n2)c(OC)cc1N(C)CCN(C)C.CS(=O)(=O)O` , thanks.
Result: 3.85
